- experiment_notes: binders of r(CAG) RNA repeats, primary screen, biochemical, fluorescence (AID 651821);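 note: 0% = DMSO alone and 100% = 100 µM mitoxantrone as full dye displacement; higher means more dye released from RNA so lower well fluorescence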
- run_conditions: r(CAG) RNA repeat, TO-PRO-1 dye displacement fluorescence; at 3 µM; stronger effect = higher value
The campaign covered roughly 370,000 compounds. About 4,700 (1.3%) were called active. For the sample, actives were picked, then their nearest neighbours and some compounds at random.
property: inhibition (%)
State just the number; it will be interpreted in %.

The following compounds have reported results that may help.
In [3]: df
Out[3]:
                                   compound  measured_value
0  COC(=O)Nc1ccc(S(=O)(=O)Nc2cc(OC)nc(OC)n2)cc1             1.9
1  COc1ccc(/C=C(/NC(=O)c2ccco2)C(=O)Nc2ccc(C(C)=O)cc2)cc1            1.57
2  CN(Cc1ccccc1)S(=O)(=O)c1nnc(NC(=O)c2ccccc2F)s1            54.3
3  CC1(C(=O)NS(=O)(=O)c2ccccc2)CCN1C(=O)Cc1ccc(-c2ccccc2)cc1 (stereo not given)            41.7

Req: Item under review: CC(=O)c1ccc(S(=O)(=O)NCC2CCN(C(=O)C(=O)c3cccs3)CC2)cc1 . Reported inhibition?
Resp: 2.35

Req: Item under review: CC(=O)N1C(=O)/C(=C2\SC(=S)N(NC(=O)c3ccc(O)cc3)C2=O)c2ccccc21 . Reported inhibition?
Resp: 14

Req: Item under review: COc1cc(NS(=O)(=O)c2ccc(NC(=S)NC(=O)c3ccccc3)cc2)nc(OC)n1 . Reported inhibition?
Resp: 24.5

Req: Item under review: CCCCc1ccc(S(=O)(=O)NC(=O)C2(C)CCN2C(=O)c2ccccc2)cc1 (stereo not given) . Reported inhibition?
Resp: 32.5

Req: Item under review: CCC1CCCCN1C(=S)NC(=O)c1ccco1 (stereo not given) . Reported inhibition?
Resp: 0.91

Req: Item under review: CC1(C(=O)NS(=O)(=O)c2ccccc2)CCN1C(=O)C/C=C/c1ccccc1 (stereo not given) . Reported inhibition?
Resp: 7.12

Req: Item under review: COc1cccc(CC(=O)N2CCN(C(=O)C(=O)c3cccc(C(F)(F)F)c3)CC2)c1 . Reported inhibition?
Resp: -1.34

Req: Item under review: O=c1[nH]c(-c2ccccc2)cn1C1CCN(Cc2ccc(-c3nc4ccc(F)cc4nc3-c3ccccc3)cc2)CC1 . Reported inhibition?
Resp: 14.3

Req: Item under review: COc1ccc(S(=O)(=O)NC(=O)C2(C)CCN2C(=O)c2ccccc2CCc2ccccc2)cc1 (stereo not given) . Reported inhibition?
Resp: 43.4

Req: Item under review: COc1ccccc1-n1c(SCC(=O)O)nc2sc3c(c2c1=O)CCC3 . Reported inhibition?
Resp: 5.16
